meta.source: patent US20250304549A1

molecular target: pan-HDAC; experiment: In vitro enzyme inhibition assay - HDAC (HDAC-Glo I/II), pan-HDAC; format: biochemical
Structures can show the parent of a compound that is named as a salt.
// NB: equality with 3 nM counts as 0 (no); only IC50 strictly below is 1 (yes)

Record N#Cc1ccc(-c2c(-c3ccc(OCCCCCCC(=O)NO)c(O)c3)cnc(N3CCC(N)CC3)c2C#N)cc1F [Example 25, hydrochloride] : is its IC50 strictly below 3 nM?
0 (no)

Record N#Cc1ccc(-c2c(-c3ccc(OCCc4ccc(/C=C/C(=O)NO)cc4)c(O)c3)cnc(N3CCC(N)CC3)c2C#N)cc1F [Example 231, hydrochloride] : is its IC50 strictly below 3 nM?
0 (no)

Record COc1cc(OC)c(-c2cnc(N3CCC(NCc4ccc(/C=C/C(=O)NO)cc4)CC3)c(C#N)c2-c2ccc(C#N)c(F)c2)cc1O [Example 165, hydrochloride] : is its IC50 strictly below 3 nM?
0 (no)

* * *

Test system: NCI-H526 cells
Test: In vitro cell inhibition assay - NCI-H526 cell proliferation (CellTiter-Glo)
Type: cell-based
Conditions: Homo sapiens, NCI-H526, 120 h, H526 small cell lung cancer cell proliferation, 5 days
Method: 6. In Vitro Cell Inhibition Assay—NCI-H526 Cell Proliferation The inhibitory effect of the compounds on cell proliferation was assessed by detecting the number of viable cells using CellTiter-Glo® reagent. […] The 96-well plate was subsequently placed on a multifunctional microplate reader to record the Luminescence values (RLU). The inhibition rate was calculated using the following formula: […] The IC50 value was determined by fitting the inhibition rate by GraphPad Prism software.
Where a name gives a salt, the structure may show the parent alone.
measurementName: pIC50
Numbers only, as −log10 of the molar value.

| compound | measurementName | reading |
| --- | --- | --- |
| CC(C)(O)COc1ccc(-c2cnc(N3CCC(NC(C)(C)c4ccc(/C=C/C(=O)NO)cc4)CC3)c(C#N)c2-c2ccc(C#N)c(F)c2)cc1O [Example 223, hydrochloride] | pIC50 | 7.77 |

Kindly give each listed record's pIC50.
1. COc1ccc(-c2cnc(N3CCC(NCc4ccc(/C=C/C(=O)NO)cc4)CC3)c(C#N)c2-c2cnc(C#N)c(OC)c2)cc1O [Example 243, hydrochloride]
2. COc1ccc(-c2cnc(N3CCC(NCc4ccc(/C=C(\F)C(=O)NO)cc4)CC3)c(C#N)c2-c2ccc(C#N)nc2)cc1O
3. CC(C)(O)COc1ccc(-c2cnc(N3CCC(NCc4ccc(/C=C/C(=O)NO)c(C#N)c4)CC3)c(C#N)c2-c2ccc(C#N)c(F)c2)cc1O

1. 7.97
2. 7.94
3. 7.56

Kindly give each listed record's pIC50.
1. N#Cc1ccc(-c2c(-c3ccc(C4CC4)c(O)c3)cnc(N3CCC(NCc4ccc(/C=C/C(=O)NO)cc4)CC3)c2C#N)cc1F
2. COc1ccc(-c2cnc(N3CCC(NCc4ncc(/C=C/C(=O)NO)cn4)CC3)c(C#N)c2-c2ccc(C#N)c(F)c2)cc1O [Example 135, formate]
3. COc1ccc(-c2c(C#N)cc(N3CCC(NCc4ccc(/C=C/C(=O)NO)cc4)CC3)nc2-c2ccc(C#N)c(F)c2)cc1O [Example 176, formate]

[7.79, 6.70, 6.30]

* * *

target: LSD1 (Homo sapiens (Human), UniProt O60341); assay: In vitro enzyme inhibition assay - LSD1 (HTRF); format: biochemical
pIC50: −log10 of the molar value. Where a name gives a salt, the structure may show the parent alone.
Definition: the class of an entry is the range in 0 (below 8), 1 (8 to below 9), 2 (9 or more) that contains its pIC50.

Worked examples follow.
| molecule | answerLabel |
| --- | --- |
| CNC1CCN(c2ncc(-c3ccc(OCCCCCCC(=O)NO)c(O)c3)c(-c3ccc(C#N)c(F)c3)c2C#N)CC1 [Example 24, hydrochloride] | 2 |
| COc1ccc(-c2cnc(N3CCC(NCc4ccc(/C=C/C(=O)NO)c(OC)c4)CC3)c(C#N)c2-c2ccc(C#N)c(F)c2)cc1O [Example 108, formate] | 1 |
| CC(C)(O)Cn1nnc2cc(-c3cnc(N4CCC(NCc5ccc(/C=C/C(=O)NO)cc5)CC4)c(C#N)c3-c3ccc(C#N)c(F)c3)ccc21 [Example 197, formate] | 2 |
| COc1ccc(-c2cnc(N3CCC(NCc4ccc(OC(C)C(=O)NO)cc4)CC3)c(C#N)c2-c2ccc(C#N)c(F)c2)cc1O (centres unmarked) [Example 183, formate] | 2 |

Form: Item = N#Cc1ccc(-c2c(-c3ccc(NC(=O)CCCCCCC(=O)NO)c(O)c3)cnc(N3CCC(N)CC3)c2C#N)cc1F [Example 58, hydrochloride] ; Class = ?
2
